Values from patent US20040121947A1

Target: T1, memapsin 2 (Homo sapiens, UniProt P56817)
T1 construct: pET-11 vector-derived residues 1-15 of promemapsin 2-T1 (N, cleaved yes); made in house; host or cells: E. coli
T1 sequence (P56817 41-454 limits assumed): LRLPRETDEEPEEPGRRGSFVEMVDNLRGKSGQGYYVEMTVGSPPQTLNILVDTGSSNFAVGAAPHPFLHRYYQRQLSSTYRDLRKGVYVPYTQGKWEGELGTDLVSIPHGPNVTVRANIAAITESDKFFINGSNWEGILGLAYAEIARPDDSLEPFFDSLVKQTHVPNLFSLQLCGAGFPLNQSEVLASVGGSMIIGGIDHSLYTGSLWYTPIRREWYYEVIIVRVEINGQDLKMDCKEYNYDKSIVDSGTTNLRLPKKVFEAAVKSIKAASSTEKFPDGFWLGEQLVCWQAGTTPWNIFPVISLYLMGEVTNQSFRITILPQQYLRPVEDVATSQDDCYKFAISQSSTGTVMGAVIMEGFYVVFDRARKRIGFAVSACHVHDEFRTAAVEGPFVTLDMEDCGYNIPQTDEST
Assay: Inhibition of memapsin 2 proteolytic activity, fluorogenic substrate FS-2
Format: biochemical
Settings: memapsin 2; independent of substrate, converted from Ki apparent; read-out: Ki
Below is a list of entries, each paired with its recorded Ki value.
Reply numerically in nM, unit not repeated.

# compound, unit annotation, quantitative result
records = [
    ("CSCC[C@H](NC(=O)C(C)Cn1nc(C)cc1C)C(=O)N[C@@H](CC(C)C)[C@@H](O)C[C@@H](C)C(=O)N[C@H](C(=O)NCC(C)C)C(C)C (stereo partly drawn) [MMI-195]", "nM", 282),
]

Reported Ki for CSCC[C@H](NC(=O)C(Cn1nc(C)cc1C)C(C)C)C(=O)N[C@@H](CC(C)C)[C@@H](O)C[C@@H](C)C(=O)N[C@H](C(=O)NCC(C)C)C(C)C (stereo partly drawn) [MMI-204] : what is it?
17.1

Now this one: CSCC[C@H](NC(=O)OCc1ccc(CN(C)C)o1)C(=O)N[C@@H](CC(C)C)[C@@H](O)C[C@@H](C)C(=O)N[C@H](C(=O)NCc1ccccc1)C(C)C [MMI-127]
4280

----------
Biological target: T1, memapsin 2 (Homo sapiens, UniProt P56817)
T1 construct: pET-11 vector-derived residues 1-15 of promemapsin 2-T1 (N, cleaved yes); made in house; host or cells: E. coli
Assay: Inhibition of memapsin 2 proteolytic activity, fluorogenic substrate FS-2
Format: biochemical
Conditions: ratio of % inhibition memapsin 1 / memapsin 2; 1 or less = greater inhibition of memapsin 2
Method: Ki is the inhibition equilibrium constant which indicates the ability of compounds to inhibit the β-secretase activity of memapsin 2 and memapsin 1. […] The K1 value is independent of the substrate, and converted from Ki apparent. The Vi/Vo values depicted in Table 1 were determined at conditions under which the enzyme and inhibitor concentrations were equal (e.g., about 80 nM, 100 nM). […]
Below is a list of entries, each paired with its recorded % Inh (M1/M2) value.
Give only the figure.

# compound, test system, quantitative result
rows = [
    ("CCCCNC(=O)[C@H](C(C)C)N1CC[C@@](C)(C[C@H](O)[C@H](CC(C)C)NC(=O)[C@H](CCSC)NC(=O)OCn2nc(C)cc2C)C1=O [MMI-182]", "T1, memapsin 2 (Homo sapiens, UniProt P56817)", 0),
    ("CSCC[C@H](NC(=O)[C@H](CC(C)C)NC(=O)OC(C)(C)C)C(=O)N[C@@H](CC(C)C)[C@@H](O)C[C@@H](C)C(=O)N[C@H](C(=O)NCC(C)C)C(C)C [MMI-134]", "T1, memapsin 2 (Homo sapiens, UniProt P56817)", 1.21),
    ("CSCC[C@H](NC(=O)[C@@H](NC(=O)OC(C)(C)C)C(C)C)C(=O)N[C@@H](CC(C)C)[C@@H](O)C[C@@H](CO)C(=O)N[C@H](C(=O)NCc1ccccc1)C(C)C [MMI-132]", "T1, memapsin 2 (Homo sapiens, UniProt P56817)", 1.30),
    ("CCCCNC(=O)[C@@H](NC(=O)[C@H](C)C[C@H](O)[C@H](CC(C)C)NC(=O)[C@H](CCSC)NC(=O)OCn1nc(C)cc1C)C(C)C [MMI-167]", "T1, memapsin 2 (Homo sapiens, UniProt P56817)", 0.18),
    ("CC(C)C[C@H](NC(=O)[C@H](CCS(C)(=O)=O)NC(=O)[C@@H](NC(=O)OC(C)(C)C)C(C)C)[C@@H](O)C[C@@H](C)C(=O)N[C@@H](C(=O)NCc1ccccc1)[C@@H](C)O [MMI-073]", "T1, memapsin 2 (Homo sapiens, UniProt P56817)", 0.73),
]

Now take the following compound into account.
Reported % Inh (M1/M2) for CSCC[C@H](NC(=O)[C@@H](NC(=O)OC(C)(C)C)C(C)C)C(=O)N[C@@H](CC(C)C)[C@@H](O)C[C@@H](C)C(=O)N[C@@H](CC(C)C)C(=O)NCc1ccco1 [MMI-116] : what is it?
1.52

----------
Below is a list of entries, each paired with its recorded Ki value.
Biological target: T1, memapsin 2 (Homo sapiens, UniProt P56817)
T1 construct: pET-11 vector-derived residues 1-15 of promemapsin 2-T1 (N, cleaved yes); made in house; host or cells: E. coli
Experiment: Inhibition of memapsin 2 proteolytic activity, fluorogenic substrate FS-2
Format: biochemical
Conditions: memapsin 2; apparent Ki in presence of substrate FS-2; read-out: Ki app
Reply numerically in nM, unit not repeated.

# compound, Ki (nM)
rows = [
    ("CSCC[C@H](NC(=O)[C@@H](NC(=O)OC(C)(C)C)C(C)C)C(=O)N[C@@H](CC(C)C)[C@@H](O)C[C@@H](CO)C(=O)N[C@H](C(=O)NCc1ccccc1)C(C)C [MMI-132]", 107),
]

Reported Ki for CC(C)C[C@H](NC(=O)OC(C)(C)C)C(=O)N[C@H](CCS(C)(=O)=O)C(=O)N[C@@H](CC(C)C)[C@@H](O)C[C@@H](C)C(=O)N[C@H](C(=O)NCc1ccccc1)C(C)C [MMI-105] : what is it?
201

Now this one: CC(C)C[C@H](NC(=O)[C@H](CS(C)(=O)=O)NC(=O)[C@@H](NC(=O)OC(C)(C)C)C(C)C)[C@@H](O)C[C@@H](C)C(=O)N[C@H](C(=O)NCc1ccccc1)C(C)C [MMI-026]
16

Now this one: CSCC[C@H](NC(=O)c1cccc(O)c1C)C(=O)N[C@@H](CC(C)C)[C@@H](O)C[C@@H](C)C(=O)N[C@@H](CC(C)C)C(=O)NCc1ccccc1 [MMI-120]
1800

Now this one: C=CC[C@H](C[C@H](O)[C@H](CC(C)C)NC(=O)[C@H](CC(N)=O)NC(=O)[C@@H](NC(=O)OC(C)(C)C)C(C)C)C(=O)N[C@H](C(=O)NCc1ccccc1)C(C)C [MMI-021]
112

----------
Below is a list of entries, each paired with its recorded pKi value.
Target: T1, memapsin 2 (Homo sapiens, UniProt P56817)
T1 construct: pET-11 vector-derived residues 1-15 of promemapsin 2-T1 (N, cleaved yes); made in house; host or cells: E. coli
Assay: Inhibition of memapsin 2 proteolytic activity, fluorogenic substrate FS-2
Format: biochemical
Conditions: memapsin 2; apparent Ki in presence of substrate FS-2; read-out: Ki app
pKi here: minus log base 10 of the concentration, concentration in moles per litre.

Below, 5 compounds whose answers are already recorded.
# compound, pKi
data = [
    ("COc1ccc(C(=O)N[C@@H](CCSC)C(=O)N[C@@H](CC(C)C)[C@@H](O)C[C@@H](C)C(=O)N[C@@H](CC(C)C)C(=O)NC(C)C)cc1 [MMI-208]", 5.71),
    ("CCC[C@H](C[C@H](O)[C@H](CC(C)C)NC(=O)[C@H](CSC)NC(=O)O[C@H]1CCOC1)C(=O)N[C@H](C(=O)NCc1ccccc1)C(C)C [MMI-029]", 5.77),
    ("COc1cccc(C(=O)N[C@@H](CSC)C(=O)N[C@@H](CC(C)C)[C@@H](O)C[C@@H](C)C(=O)N[C@@H](CC(C)C)C(=O)NC(C)C)c1OC [MMI-199]", 6.02),
    ("COCC[C@H](NC(=O)[C@H](CC(C)C)NC(=O)OC(C)(C)C)C(=O)N[C@@H](CC(C)C)[C@@H](O)C[C@@H](C)C(=O)N[C@@H](CC(C)C)C(=O)NC(C)C [MMI-185]", 8.14),
    ("CSCC[C@H](NC(=O)OCn1nc(C)cc1C)C(=O)N[C@@H](CC(C)C)[C@@H](O)C[C@@H](C)C(=O)N[C@H](C(=O)NCC(C)C)C(C)C [MMI-156]", 8.52),
]

Now take the following compound into account.
Reported pKi for CSCC[C@H](NC(=O)c1cccc(O)c1O)C(=O)N[C@@H](CC(C)C)[C@@H](O)C[C@@H](C)C(=O)N[C@@H](CC(C)C)C(=O)NC(C)C [MMI-200] : what is it?
5.82

----------
Below is a list of entries, each paired with its recorded log10 Ki value.
Molecular target: T1, memapsin 2 (Homo sapiens, UniProt P56817)
T1 construct: pET-11 vector-derived residues 1-15 of promemapsin 2-T1 (N, cleaved yes); made in house; host or cells: E. coli
Test: Inhibition of memapsin 2 proteolytic activity, fluorogenic substrate FS-2
Assay type: biochemical
Settings: memapsin 2; apparent Ki in presence of substrate FS-2; read-out: Ki app
Procedure: Ki is the inhibition equilibrium constant which indicates the ability of compounds to inhibit the β-secretase activity of memapsin 2 and memapsin 1. […] The K1 value is independent of the substrate, and converted from Ki apparent. The Vi/Vo values depicted in Table 1 were determined at conditions under which the enzyme and inhibitor concentrations were equal (e.g., about 80 nM, 100 nM). […]
Recorded Ki (log10, µM)

Below, 3 compounds whose answers are already recorded.
# structure smiles string, log10 Ki
data = [
    ("CSCC[C@H](NC(=O)[C@H](CC(C)C)NC(=O)OC(C)(C)C)C(=O)N[C@@H](CC(C)C)[C@H](O)C[C@@H](C)C(=O)N[C@H](C(=O)NCc1ccccc1)C(C)C", -1.00),
    ("CSCC[C@H](NC(=O)[C@@H](NC(=O)OC(C)(C)C)C(C)C)C(=O)N[C@@H](CO)[C@@H](O)C[C@@H](C)C(=O)N[C@H](C(=O)NCc1ccccc1)C(C)C", -2.69),
    ("CSCC[C@H](NC(=O)[C@@H](NC(=O)OC(C)(C)C)C(C)C)C(=O)N[C@@H](CC(C)C)[C@@H](O)C[C@@H](C)C(=O)N[C@H](C(=O)NCc1ccccc1)C(C)C", -2.41),
]

Reported log10 Ki for CSCC[C@H](NC(=O)[C@@H](NC(=O)OC(C)(C)C)C(C)C)C(=O)N[C@@H](CC(C)C)[C@@H](O)C[C@@H](CCO)C(=O)N[C@H](C(=O)NCc1ccccc1)C(C)C : what is it?
-0.98

Now this one: CSCC[C@H](NC(=O)OCn1nc(C)cc1C)C(=O)N[C@@H](CC(C)C)[C@@H](O)C[C@@H](C)C(=O)N[C@H](C(=O)NC(C)C)C(C)C
-1.61
